Test: Drug level in beagle dog at 1 mg/kg, po after 24 hrs by LC-MS/MS method
Format: ADME, organism-based, Canis lupus familiaris
Details: in vivo, read-out: Drug uptake
quantity_name: concentration at 24 h (nM)

| molecule_smiles | test_value |
| --- | --- |
| COC(=O)N[C@H](C(=O)N1CCC[C@H]1c1ncc(-c2ccc(-c3cc4cc(-c5cnc([C@@H]6CCCN6C(=O)[C@@H](NC(=O)OC)C(C)C)[nH]5)ccc4o3)cc2)[nH]1)C(C)C | 4 |

* * *

Test: Cmax in cynomolgus monkey at 2 mg/kg, po by LC-MS/MS method
Format: ADME, organism-based, Macaca fascicularis
Parameters: dose 2 mg/kg, route oral
Details: in vivo

| molecule_smiles | Cmax [nM] |
| --- | --- |
| COC(=O)N[C@H](C(=O)N1CC(F)(F)C[C@H]1c1ncc(-c2ccc(-c3ccc4c(ccc5nc([C@@H]6C[Si](C)(C)CN6C(=O)[C@@H](NC(=O)OC)C(C)C)[nH]c54)c3)cc2)[nH]1)C(C)C.Cl.Cl | 180 |

* * *

Assay: Oral bioavailability in fasted dog at 2 mg/kg by LC-MS/MS method
Type: ADME, organism-based, Canis lupus familiaris
Conditions: in vivo
quantity_name: bioavailability

| molecule_smiles | test_value |
| --- | --- |
| COC(=O)N[C@H](C(=O)N1CC(F)(F)C[C@H]1c1ncc(-c2ccc(-c3ccc4c(ccc5nc([C@@H]6C[Si](C)(C)CN6C(=O)[C@@H](NC(=O)OC)C(C)C)[nH]c54)c3)cc2)[nH]1)C(C)C.Cl.Cl | 9% |

* * *

Listing: bioavailability of selected compounds
Test: Oral bioavailability in cynomolgus monkey at 2 mg/kg by LC-MS/MS method
Type: ADME, organism-based, Macaca fascicularis
Conditions: in vivo

| molecule_smiles | bioavailability (%) |
| --- | --- |
| COC(=O)N[C@H](C(=O)N1C[Si](C)(C)C[C@H]1c1ncc(-c2ccc(-c3ccc4c(ccc5nc([C@@H]6CC(F)(F)CN6C(=O)[C@@H](NC(=O)OC)C(C)C)[nH]c54)c3)cc2)[nH]1)C(C)C | 45 |
| COC(=O)N[C@H](C(=O)N1CC(F)(F)C[C@H]1c1ncc(-c2ccc(-c3ccc4c(ccc5nc([C@@H]6C[Si](C)(C)CN6C(=O)[C@@H](NC(=O)OC)C(C)C)[nH]c54)c3)cc2)[nH]1)C(C)C.Cl.Cl | 11.7 |

* * *

Test: Cmax in beagle dog at 2 mg/kg, po by LC-MS/MS method
Assay type: ADME, organism-based, Canis lupus familiaris
Parameters: dose 2 mg/kg, route oral
Conditions: in vivo

| molecule_smiles | Cmax / nM |
| --- | --- |
| COC(=O)N[C@H](C(=O)N1CC(F)(F)C[C@H]1c1ncc(-c2ccc(-c3ccc4c(ccc5nc([C@@H]6C[Si](C)(C)CN6C(=O)[C@@H](NC(=O)OC)C(C)C)[nH]c54)c3)cc2)[nH]1)C(C)C.Cl.Cl | 270 |

* * *

Assay: Effective half life in Sprague-Dawley rat at 2.5 mg/kg, iv by LC-MS/MS method
Assay type: ADME, organism-based
Conditions: in vivo, read-out: t1/2eff (converted)

| molecule_smiles | half-life |
| --- | --- |
| COC(=O)N[C@H](C(=O)N1CC(F)(F)C[C@H]1c1ncc(-c2ccc(-c3ccc4c(ccc5nc([C@@H]6C[Si](C)(C)CN6C(=O)[C@@H](NC(=O)OC)C(C)C)[nH]c54)c3)cc2)[nH]1)C(C)C.Cl.Cl | 7.6 h |
| COC(=O)N[C@H](C(=O)N1C[Si](C)(C)C[C@H]1c1ncc(-c2ccc(-c3ccc4c(ccc5nc([C@@H]6CC(F)(F)CN6C(=O)[C@@H](NC(=O)OC)C(C)C)[nH]c54)c3)cc2)[nH]1)C(C)C | 10 h |
| COC(=O)N[C@H](C(=O)N1CCC[C@H]1c1ncc(-c2ccc(-c3cc4cc(-c5cnc([C@@H]6CCCN6C(=O)[C@@H](NC(=O)OC)C(C)C)[nH]5)ccc4o3)cc2)[nH]1)C(C)C | 2 h |

* * *

Experiment: Ratio of drug level in liver to plasma of rat
Assay type: ADME, cell-free
quantity_name: Kp

| molecule_smiles | test_value |
| --- | --- |
| COC(=O)N[C@H](C(=O)N1CC(F)(F)C[C@H]1c1ncc(-c2ccc(-c3ccc4c(ccc5nc([C@@H]6C[Si](C)(C)CN6C(=O)[C@@H](NC(=O)OC)C(C)C)[nH]c54)c3)cc2)[nH]1)C(C)C | 27 |

* * *

Test: Solubility in pH 3.1 buffer
Format: physicochemical
quantity_name: solubility

| molecule_smiles | quantity_name | test_value |
| --- | --- | --- |
| COC(=O)N[C@H](C(=O)N1CC(F)(F)C[C@H]1c1ncc(-c2ccc(-c3ccc4c(ccc5nc([C@@H]6C[Si](C)(C)CN6C(=O)[C@@H](NC(=O)OC)C(C)C)[nH]c54)c3)cc2)[nH]1)C(C)C | solubility | 65 µg/mL |

* * *

Test: Clearance in beagle dog at 1 mg/kg, iv by LC-MS/MS method
Assay type: ADME, organism-based, Canis lupus familiaris
Settings: in vivo
Recorded measurements of clearance, one per entry
quantity_name: clearance (mL/min/kg)

| molecule_smiles | test_value |
| --- | --- |
| COC(=O)N[C@H](C(=O)N1C[Si](C)(C)C[C@H]1c1ncc(-c2ccc(-c3ccc4c(ccc5nc([C@@H]6CC(F)(F)CN6C(=O)[C@@H](NC(=O)OC)C(C)C)[nH]c54)c3)cc2)[nH]1)C(C)C | 0.7 |
| COC(=O)N[C@H](C(=O)N1CCC[C@H]1c1ncc(-c2ccc(-c3cc4cc(-c5cnc([C@@H]6CCCN6C(=O)[C@@H](NC(=O)OC)C(C)C)[nH]5)ccc4o3)cc2)[nH]1)C(C)C | 6.4 |
| COC(=O)N[C@H](C(=O)N1CC(F)(F)C[C@H]1c1ncc(-c2ccc(-c3ccc4c(ccc5nc([C@@H]6C[Si](C)(C)CN6C(=O)[C@@H](NC(=O)OC)C(C)C)[nH]c54)c3)cc2)[nH]1)C(C)C.Cl.Cl | 0.8 |

* * *

Assay: Toxicity in female rat up to 30 mg/kg/day, po for 4 days
Format: organism-based
Conditions: in vivo

| molecule_smiles | NOAEL at 96 h |
| --- | --- |
| COC(=O)N[C@H](C(=O)N1CC(F)(F)C[C@H]1c1ncc(-c2ccc(-c3ccc4c(ccc5nc([C@@H]6C[Si](C)(C)CN6C(=O)[C@@H](NC(=O)OC)C(C)C)[nH]c54)c3)cc2)[nH]1)C(C)C | > 30 mg/kg/day |

* * *

Experiment: Terminal half life in cynomolgus monkey at 1 mg/kg, iv by LC-MS/MS method
Assay type: ADME, organism-based, Macaca fascicularis
Conditions: in vivo, read-out: beta t1/2 (converted)

| molecule_smiles | half-life [h] |
| --- | --- |
| COC(=O)N[C@H](C(=O)N1CC(F)(F)C[C@H]1c1ncc(-c2ccc(-c3ccc4c(ccc5nc([C@@H]6C[Si](C)(C)CN6C(=O)[C@@H](NC(=O)OC)C(C)C)[nH]c54)c3)cc2)[nH]1)C(C)C.Cl.Cl | 20 |

* * *

Assay: Drug excretion in rat feces assessed as unchanged compound level at 2.5 mg/kg, iv
Assay type: ADME, organism-based
Settings: faeces, read-out: Drug excretion
quantity_name: dose excreted (%)

| molecule_smiles | test_value |
| --- | --- |
| COC(=O)N[C@H](C(=O)N1CC(F)(F)C[C@H]1c1ncc(-c2ccc(-c3ccc4c(ccc5nc([C@@H]6C[Si](C)(C)CN6C(=O)[C@@H](NC(=O)OC)C(C)C)[nH]c54)c3)cc2)[nH]1)C(C)C | 27 |

* * *

Experiment: Drug level in cynomolgus monkey at 2 mg/kg, po after 24 hrs by LC-MS/MS method
Assay type: ADME, organism-based, Macaca fascicularis
Settings: in vivo, read-out: Drug uptake
concentration at 24 h reference

| molecule_smiles | concentration at 24 h [nM] |
| --- | --- |
| COC(=O)N[C@H](C(=O)N1CC(F)(F)C[C@H]1c1ncc(-c2ccc(-c3ccc4c(ccc5nc([C@@H]6C[Si](C)(C)CN6C(=O)[C@@H](NC(=O)OC)C(C)C)[nH]c54)c3)cc2)[nH]1)C(C)C.Cl.Cl | 55 |
| COC(=O)N[C@H](C(=O)N1C[Si](C)(C)C[C@H]1c1ncc(-c2ccc(-c3ccc4c(ccc5nc([C@@H]6CC(F)(F)CN6C(=O)[C@@H](NC(=O)OC)C(C)C)[nH]c54)c3)cc2)[nH]1)C(C)C | 273 |

* * *

Test: Solubility in pH 7.3 buffer
Assay type: physicochemical

| molecule_smiles | unit_label | solubility |
| --- | --- | --- |
| COC(=O)N[C@H](C(=O)N1CC(F)(F)C[C@H]1c1ncc(-c2ccc(-c3ccc4c(ccc5nc([C@@H]6C[Si](C)(C)CN6C(=O)[C@@H](NC(=O)OC)C(C)C)[nH]c54)c3)cc2)[nH]1)C(C)C | µg/mL | 2.7 |
